Reference source: PubChem BioAssay AID2247

# system_under_test: Short transient receptor potential channel 4 (Mus musculus)
# assay_procedure: inhibitors of mouse TRPC4 channel, primary screen, Fluo4 calcium, HEK293 TRPC4beta/mu-opioid cells (AID 2247)
# stated_conditions: DAMGO-evoked Fluo4 calcium flux, at 10 µM
Out of some 300,000 compounds screened, about 1,200 (0.4%) were called active.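 How the source made its calls: active means B-score over 3 SD under the library average, no early fluorescence shift, positive overall ratio signal; inactive means the rest.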 The entries come from a sample that favours actives as a whole.
Labels: yes (1) (active), no (0) (inactive)

# compound, label
data = [
    ("N#CC1=C(N)Oc2c(c(=O)oc3ccccc23)C1c1ccccc1OC(=O)c1cccs1 (centres undefined)", "no (0)"),
    ("CC(=O)N(C1=NCCCS1)c1ccccc1F", "no (0)"),
    ("OCC#CC[N+]1(CC#Cc2ccccc2)CCCC1", "no (0)"),
    ("CCOC(=O)C1(Cc2ccc(Cl)cc2)CCN(C(C)CCn2cccn2)CC1 (centres undefined)", "yes (1)"),
    ("CN1CCC(OC(=O)c2cccc(F)c2)CC1", "no (0)"),
    ("CN(C)CC1CCCCC1=O (centres undefined)", "no (0)"),
    ("COc1ccc(CN2CCN(c3ccccc3F)CC2)c(OC)c1", "no (0)"),
    ("COC(=O)C1=C(c2cc3ccccc3s2)C[C@@H]2CC[C@H]1N2C(=O)NC(C)C", "no (0)"),
    ("Cc1ccc(C2CN(C)CC2C(=O)c2ccc(F)cc2)cc1 (centres undefined)", "yes (1)"),
    ("c1ccc(CCN2CCC3(CC2)OCCO3)cc1", "no (0)"),
    ("COC(=O)C1=C(c2cc3ccccc3s2)C[C@@H]2CC[C@H]1N2C(=O)NCc1cccc2ccccc12", "no (0)"),
    ("COc1ccc(N=Cc2c(O)n(C)c(=O)[nH]c2=O)cc1", "no (0)"),
    ("CCOC(=O)C1(CCc2ccccc2)CCN(Cc2ccco2)CC1", "yes (1)"),
    ("O=c1[nH]c(CN2CC=C(c3ccccc3)CC2)nc2scc(-c3cccs3)c12", "no (0)"),
]
